conditions: in 1,2-dichloroethane, 318.15 K
ASSAY READOUT: solubility (mole fraction)
Give the value as a plain number.

Kindly note the recorded solubility (mole fraction) for NC(=O)Nc1ccccc1 , which is 0.00257

----------
settings: in acetonitrile, 288.15 K
ASSAY READOUT: solubility (mole fraction)
Give the value as a plain number.

Kindly note the recorded solubility (mole fraction) for NC(=O)Nc1ccccc1 , which is 0.00731

----------
conditions: in ethylene glycol, 293.15 K
ASSAY READOUT: solubility (mole fraction)

Kindly note the recorded solubility (mole fraction) for NC(=O)Nc1ccccc1 , which is 0.0448

----------
conditions: in ethylene glycol, 288.15 K
ASSAY READOUT: solubility (mole fraction)
Give the value as a plain number.

Kindly note the recorded solubility (mole fraction) for NC(=O)Nc1ccccc1 , which is 0.039

----------
conditions: in methanol, 283.15 K
ASSAY READOUT: solubility (mole fraction)

Kindly note the recorded solubility (mole fraction) for NC(=O)Nc1ccccc1 , which is 0.0265

----------
conditions: in acetonitrile, 308.15 K
ASSAY READOUT: solubility (mole fraction)
Give the value as a plain number.

Kindly note the recorded solubility (mole fraction) for NC(=O)Nc1ccccc1 , which is 0.0177

----------
conditions: in NMP, 318.15 K
ASSAY READOUT: solubility (mole fraction)

Kindly note the recorded solubility (mole fraction) for NC(=O)Nc1ccccc1 , which is 0.115

----------
conditions: in water, 288.15 K
ASSAY READOUT: solubility (mole fraction)
Give the value as a plain number.

Kindly note the recorded solubility (mole fraction) for NC(=O)Nc1ccccc1 , which is 0.000513

----------
conditions: in 1,4-dioxane, 288.15 K
ASSAY READOUT: solubility (mole fraction)
Give the value as a plain number.

Kindly note the recorded solubility (mole fraction) for NC(=O)Nc1ccccc1 , which is 0.0128

----------
details: in methanol, 323.15 K
ASSAY READOUT: solubility (mole fraction)
Give the value as a plain number.

Kindly note the recorded solubility (mole fraction) for NC(=O)Nc1ccccc1 , which is 0.0888

----------
conditions: in ethylene glycol, 323.15 K
ASSAY READOUT: solubility (mole fraction)
Give the value as a plain number.

Kindly note the recorded solubility (mole fraction) for NC(=O)Nc1ccccc1 , which is 0.101

----------
conditions: in acetonitrile, 313.15 K
ASSAY READOUT: solubility (mole fraction)
Give the value as a plain number.

Kindly note the recorded solubility (mole fraction) for NC(=O)Nc1ccccc1 , which is 0.0221

----------
conditions: in 1,2-dichloroethane, 313.15 K
ASSAY READOUT: solubility (mole fraction)
Give the value as a plain number.

Kindly note the recorded solubility (mole fraction) for NC(=O)Nc1ccccc1 , which is 0.002

----------
conditions: in ethyl acetate, 313.15 K
ASSAY READOUT: solubility (mole fraction)
Give the value as a plain number.

Kindly note the recorded solubility (mole fraction) for NC(=O)Nc1ccccc1 , which is 0.0461

----------
conditions: in acetonitrile, 298.15 K
ASSAY READOUT: solubility (mole fraction)

Kindly note the recorded solubility (mole fraction) for NC(=O)Nc1ccccc1 , which is 0.0106

----------
conditions: in isopropanol, 293.15 K
ASSAY READOUT: solubility (mole fraction)
Give the value as a plain number.

Kindly note the recorded solubility (mole fraction) for NC(=O)Nc1ccccc1 , which is 0.0132

----------
details: in methanol, 298.15 K
ASSAY READOUT: solubility (mole fraction)
Give the value as a plain number.

Kindly note the recorded solubility (mole fraction) for NC(=O)Nc1ccccc1 , which is 0.0421

Cited source: BigSolDB 2.1
